Target: Recombinant human cathepsin A (Homo sapiens)
Construct: Recombinant human cathepsin A (residues 29-480, with a C-terminal 10-His tag); 10-His (C); purchased R&D Systems 1049-SE
Assay: Cathepsin A inhibitory activity
Format: biochemical
Conditions: read-out: Activity (2): Cathepsin A inhibitory activity, IC50 class
Measured IC50, listed per entry for reference.

Here is how some compounds turned out for IC50.
Compound	Measured Target	Property	Recorded Result
CCCCC(CC(=O)O)NC(=O)c1cc(O)n(-c2cc(C)ccc2C)n1 (stereo not shown)	Recombinant human cathepsin A (Homo sapiens)	IC50	1000 to 30000 nM
COc1ccc(C(CC(=O)O)NC(=O)c2cc(O)n(-c3cc(C)ccc3C)n2)cc1F (stereo not shown)	Recombinant human cathepsin A (Homo sapiens)	IC50	1000 to 30000 nM
COc1ccc(-n2nc(C(=O)N[C@@H](CC(=O)O)c3ccccc3C)cc2O)cc1	Recombinant human cathepsin A (Homo sapiens)	IC50	100 to 1000 nM

// next entry
Reported IC50, compound O=C(O)C[C@H](NC(=O)c1cc(O)n(-c2ccc(F)cc2)n1)c1ccc(C(F)(F)F)cc1 : ____
1000 to 30000 nM

====

Measured IC50, listed per entry for reference.
Target: Recombinant human cathepsin A (Homo sapiens)
Construct: Recombinant human cathepsin A (residues 29-480, with a C-terminal 10-His tag); 10-His (C); purchased R&D Systems 1049-SE
Sequence (P10619 29-312 limits assumed): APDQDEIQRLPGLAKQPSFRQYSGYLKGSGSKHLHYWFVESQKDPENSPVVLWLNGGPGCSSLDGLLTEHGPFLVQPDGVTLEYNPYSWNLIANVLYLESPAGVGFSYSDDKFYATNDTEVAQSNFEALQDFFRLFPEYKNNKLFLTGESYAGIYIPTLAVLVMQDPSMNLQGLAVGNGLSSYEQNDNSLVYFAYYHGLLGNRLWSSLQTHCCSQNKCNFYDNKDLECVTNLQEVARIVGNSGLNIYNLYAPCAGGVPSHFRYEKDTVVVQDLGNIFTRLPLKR
Sequence (P10619 327-480 limits assumed): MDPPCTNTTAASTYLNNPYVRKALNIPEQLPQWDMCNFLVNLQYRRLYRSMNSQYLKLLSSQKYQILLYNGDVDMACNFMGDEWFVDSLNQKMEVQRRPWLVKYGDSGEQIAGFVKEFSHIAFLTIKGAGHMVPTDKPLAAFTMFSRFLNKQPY
Assay: Cathepsin A inhibitory activity
Assay type: biochemical
Settings: read-out: Activity (2): Cathepsin A inhibitory activity, IC50 class

Here is how some compounds turned out for IC50.
Compound	IC50
O=C(O)C[C@H](NC(=O)c1cc(O)n(-c2cccc(F)c2)n1)c1ccccc1C(F)(F)F	0.1 to 1 µM
N#Cc1cccc([C@H](CC(=O)O)NC(=O)c2cc(O)n(-c3ccc(Cl)cc3)n2)c1	1 to 30 µM
O=C(O)C[C@H](NC(=O)c1cc(O)n(-c2ccc(F)cc2)n1)c1cccc(F)c1	0.1 to 1 µM
O=C(O)C[C@H](NC(=O)c1cc(O)n(-c2ccc(F)cc2)n1)c1ccc(F)cc1	1 to 30 µM
COc1cccc([C@H](CC(=O)O)NC(=O)c2cc(O)n(-c3ccccc3F)n2)c1OC	0.1 to 1 µM

Reported IC50, compound CC(C)[C@](C)(O)COc1cc(C(=O)NC(CC(=O)O)C2CCCCC2)nn1-c1ccccc1F (stereo partly shown) : ____
< 0.1 µM

Queued: Cc1cc(F)ccc1C(CC(=O)O)NC(=O)c1cc(O)n(-c2ccc(Cl)cc2)n1 (stereo not shown)
0.1 to 1 µM

Queued: O=C(O)C[C@H](NC(=O)c1cc(O)n(-c2ccccc2)n1)c1ccc(C(F)(F)F)cc1
0.1 to 1 µM

Queued: O=C(O)C[C@H](NC(=O)c1cc(O)n(-c2ccc(F)cc2F)n1)c1ccccc1F
0.1 to 1 µM

Queued: COc1ccc(C(CC(=O)O)NC(=O)c2cc(O)n(-c3ccccc3Cl)n2)c(F)c1 (stereo not shown)
0.1 to 1 µM

Queued: COc1cccc(-n2nc(C(=O)N[C@@H](CC(=O)O)c3ccccc3C)cc2O)c1
0.1 to 1 µM

Queued: Cc1ccccc1[C@H](CC(=O)O)NC(=O)c1cc(O)n(-c2cccc(Cl)c2)n1
0.1 to 1 µM

Queued: O=C(O)CC(NC(=O)c1cc(O)n(-c2ccccc2)n1)c1ccc(F)cc1 (stereo not shown)
1 to 30 µM

Queued: O=C(O)C[C@H](NC(=O)c1cc(O)n(-c2ccc(F)cc2)n1)c1ccccc1F
0.1 to 1 µM

Queued: O=C(O)CC(NC(=O)c1cc(O)n(-c2cccc(F)c2)n1)c1ccc(OC(F)(F)F)cc1 (stereo not shown)
0.1 to 1 µM

Queued: Cc1ccccc1[C@@H](CC(=O)O)NC(=O)c1cc(O)n(-c2ccccc2)n1
1 to 30 µM
